Quick reference: pIC50 of the listed items.
target: Human immunodeficiency virus type 1 protease (Human immunodeficiency virus 1, UniProt Q72874); assay: Tested against S2-binding site of HIV-1 protease
pIC50: −log10 of the molar value.
reported metric: pIC50

test_smiles=CC(C)(C)NC(=O)[C@@H]1C[C@@H]2CCCC[C@@H]2CN1C[C@@H](O)[C@H](Cc1ccccc1)NC(=O)O[C@@H]1CCS(=O)(=O)C1 reported_metric=pIC50 quantitative_result=6.85
test_smiles=C[C@@H]1OCC[C@@H]1OC(=O)N[C@@H](Cc1ccccc1)[C@H](O)CN1C[C@H]2CCCC[C@H]2C[C@H]1C(=O)NC(C)(C)C reported_metric=pIC50 quantitative_result=7.28
test_smiles=C[C@@H]1[C@H](OC(=O)N[C@@H](Cc2ccccc2)[C@H](O)CN2C[C@H]3CCCC[C@H]3C[C@H]2C(=O)NC(C)(C)C)CCS1(=O)=O reported_metric=pIC50 quantitative_result=7.65
